# Test system: NCI-H460 lung
# ASSAY_EXPLANATION: NCI tumour cell line growth inhibition, 48 h
TEST_READOUT: TGI

Check out these entries, answers already filled in.
CC(=O)c1c(Nc2ccc(F)c(F)c2F)[nH]c2c(F)cc(F)cc2c1=O: 11.2 µM
Cc1ccc(-c2cc(C(Cl)Cl)on2)cc1: > 100 µM
COc1ccc(-c2oc3cc(OC)ccc3c(=O)c2O)cc1: > 100 µM
COC12C=C/C(=C(/C(=O)OCc3csc(SC)n3)C(=O)CCCCCCCCC3(OC)C=C/C(=C(/C(=O)OCc4cnc(SC)s4)C(=O)CCCCCCCC1)O3)O2 (stereo not drawn): > 100 µM
Nc1cc2nc(-c3ccccc3)cn2cn1: > 100 µM

GET /value?item= CC12CCC(=O)[C@@]1(C)CCCC2=O (stereo partly drawn) &field=TGI returns > 100 µM

GET /value?item= NC(=O)c1ncn(C2OC(CO)C(O)C2O)c1NC(=S)NC(=O)c1ccccc1 (stereo not drawn) &field=TGI returns > 100 µM

GET /value?item= `COc1ccc(-c2nn(-c3cccc(Cl)c3)cc2-c2cc(-c3cccs3)no2)cc1` &field=TGI returns 16.6 µM

GET /value?item= `COc1ccccc1Cn1c2c(c3cc(O)ccc31)C(=O)c1ccccc1C2=O` &field=TGI returns > 100 µM

GET /value?item= `O=c1/c(=C/c2ccc3c(c2)OCO3)sc2nnc(Cc3ccccc3)n12` &field=TGI returns > 100 µM

GET /value?item= `O=C(Nc1nc2ccc(F)cc2s1)c1cccnc1Nc1ccc(Cl)cc1Cl` &field=TGI returns 12.4 µM

GET /value?item= O=c1cccc2n1CC1CNCC2C1 (stereo not drawn) &field=TGI returns > 100 µM

GET /value?item= `Cc1cc(N(CCC#N)CCC#N)ccc1/C=C/C(=O)Nc1ccccc1Cl` &field=TGI returns > 100 µM

---

# Test system: MDA-MB-435
# ASSAY_EXPLANATION: NCI tumour cell line growth inhibition, 48 h
TEST_READOUT: TGI

Check out these entries, answers already filled in.
C[N+]1(CCCCN2c3ccccc3Sc3cc(N=[N+]=[N-])ccc32)CCN(C(=O)CCNC(=O)Cc2ccc(C(=O)c3ccccc3)cc2)CC1: > 67.7 µM
COc1ccc2c(c1)CCC(CN1CCN(CCOC(c3ccccc3)c3ccccc3)CC1)C2O (stereo not given): 32 µM
COc1ccc(C2NC(=S)NC3=C2COc2ccc(F)cc23)cc1OC (stereo not given): 38.5 µM
CC(C)(C)OC(=O)n1c(Cl)c(C(=O)N=C=S)c2ccccc21: > 100 µM

GET /value?item= C=C1C(=O)C23CC1CCC2C12CO[C@@]3(O)[C@@H](O)C1C(C)(C)C=CC2=O (stereo not given in full) &field=TGI returns 11.1 µM

---

# Tested on: HOP-62 NSCLC
# ASSAY_EXPLANATION: NCI tumour cell line growth inhibition, 48 h
TEST_READOUT: TGI

Check out these entries, answers already filled in.
O/N=C/[C@H]1COC2(CCCCC2)O1: > 100 µM
O=C1OC(c2ccc(Cl)c3ccccc23)c2ccccc21 (stereo unspecified): > 100 µM

GET /value?item= CC1CCc2sc3[nH]c(=S)n(C)c(=O)c3c2C1 (stereo unspecified) &field=TGI returns > 100 µM

GET /value?item= `C/C(N=NC(=S)N1CCCCCC1)=C1\C=CC=CN1O` &field=TGI returns > 20.5 µM

GET /value?item= `COc1ccccc1-c1nccc(COc2ccccc2C[C@@H](Oc2ncnc3sc(-c4ccc(F)cc4)c(-c4ccc(OCCN5CCN(C)CC5)c(Cl)c4C)c23)C(=O)O)n1` &field=TGI returns 7.21 µM

GET /value?item= `CC(C)NC(=O)OCc1c(COC(=O)NC(C)C)n(C)c2c1ccc1cc(Cl)c(Cl)cc12` &field=TGI returns 28 µM

GET /value?item= `COC(=O)Cc1cc(=O)oc2c1C(=O)CCC2` &field=TGI returns > 100 µM

GET /value?item= `CCOP(=O)(COCCn1nc(Br)c(=O)[nH]c1=O)OCC` &field=TGI returns > 100 µM

GET /value?item= `CCOc1cccc(/C=N/NC(=O)Cc2ccc(Nc3ccnc(C(F)(F)F)c3)cc2)c1O` &field=TGI returns 30.8 µM

GET /value?item= `O=c1c2ccccc2c(=O)c2c1sc1c(=O)c3ccc(O)cc3c(=O)c12` &field=TGI returns 0.285 µM

GET /value?item= `COc1ccc2[nH]c3c(C)c4cc[n+](COC(=O)c5ccccc5)cc4c(C)c3c2c1` &field=TGI returns 24 µM
